Target: MAL^TIR (Homo sapiens)
Construct: MAL (residues 79–221); 6xHis; made in house; host or cells: E. coli BL21 (DE3)
Sequence (P58753 79-221): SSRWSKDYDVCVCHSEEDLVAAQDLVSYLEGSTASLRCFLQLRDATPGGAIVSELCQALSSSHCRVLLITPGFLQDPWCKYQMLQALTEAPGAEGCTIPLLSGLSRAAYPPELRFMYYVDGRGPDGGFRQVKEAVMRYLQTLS
Experiment: T‐Surf phage library (P8 and P3) selection against MAL^TIR, four rounds, NGS read counts
Type: binding
Conditions: P3 library, selection against MAL, rank by count after grouping
readout type: P3_MAL Rank (after)

sequence code: YAFTGHLHRYLVQRKQI
P3_MAL Rank (after): 752
//
sequence code: HLLKKPRNKRISPFIA
P3_MAL Rank (after): 692
//
sequence code: YAFTGHLQRYLVQRGE
P3_MAL Rank (after): 719
//
sequence code: FLNFRAWMCVTIFWA
P3_MAL Rank (after): 677
//
sequence code: RGFLSHLHHALRLNKIEAF
P3_MAL Rank (after): 747
//
sequence code: LKWGDPRQASKLGYTM
P3_MAL Rank (after): 761
//
sequence code: PNLRTKVLSYPMRTMT
P3_MAL Rank (after): 741
//
sequence code: GCLYQAFARAGFKIFM
P3_MAL Rank (after): 707
//
sequence code: YAFTGHLHHIWCSVA
P3_MAL Rank (after): 686
//
sequence code: VEPTQVRKQSGAVENATG
P3_MAL Rank (after): 676
//
sequence code: KNVRLARSVRKNGVP
P3_MAL Rank (after): 697
//
sequence code: SNLRPKVMNYLMRTKT
P3_MAL Rank (after): 756
//
sequence code: YAFTSHLHHALRLNKIETF
P3_MAL Rank (after): 711
//
sequence code: YTLLAICMMRCIVIV
P3_MAL Rank (after): 751
//
sequence code: AWFRESLSRRLKGLLT
P3_MAL Rank (after): 708
//
sequence code: PNLLTKVLHYLMRTKT
P3_MAL Rank (after): 768
//
sequence code: LVVQENLKQLLLFGGL
P3_MAL Rank (after): 745

---

Biological target: MyD88^TIR (Homo sapiens)
Construct: MyD88 (residues 148–296); 6xHis; made in house; host or cells: E. coli BL21 (DE3)
Sequence (Q99836 148-296): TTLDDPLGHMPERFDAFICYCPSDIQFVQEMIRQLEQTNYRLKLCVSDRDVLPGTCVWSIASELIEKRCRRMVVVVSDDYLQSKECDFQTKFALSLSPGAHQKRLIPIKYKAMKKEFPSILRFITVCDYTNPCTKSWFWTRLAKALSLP
Assay: T‐Surf phage library (P8 and P3) selection against MyD88^TIR, four rounds, NGS read counts
Assay type: binding
Settings: P3 library, selection against MyD88, rank after grouping
Procedure: T‐Surf libraries were screened against the immobilized TIR domains of two major human TLR adaptor proteins, MAL^TIR and MyD88^TIR, allowing cross‐species selection of TIR‐binding motifs with 190 946 TIR‐derived peptides in a single binding assay (Scheme 1). Enriched phage pools from the fourth round of selection were analyzed using NGS after barcoding the peptide‐coding regions of the phage pools. […]
readout type: P3_MyD88 Rank (after)

sequence code: SNFRKGLSRLLELSKK
system: MyD88^TIR (Homo sapiens)
P3_MyD88 Rank (after): 572

sequence code: YQWRNALSAAANLCGW
system: MyD88^TIR (Homo sapiens)
P3_MyD88 Rank (after): 569

sequence code: LEWGEPIVLEKQRSVT
system: MyD88^TIR (Homo sapiens)
P3_MyD88 Rank (after): 563

sequence code: KERPFGAQRAEKWRAALT
system: MyD88^TIR (Homo sapiens)
P3_MyD88 Rank (after): 567

sequence code: AGDKGTDKIQTPLKNA
system: MyD88^TIR (Homo sapiens)
P3_MyD88 Rank (after): 484

sequence code: SSFREGLWRLVYLSKK
system: MyD88^TIR (Homo sapiens)
P3_MyD88 Rank (after): 538

sequence code: SEIYATSPWALDVLVL
system: MyD88^TIR (Homo sapiens)
P3_MyD88 Rank (after): 508

sequence code: SSFREGPWRLLALSKK
system: MyD88^TIR (Homo sapiens)
P3_MyD88 Rank (after): 509

sequence code: NQWRSSPTAWASLSFA
system: MyD88^TIR (Homo sapiens)
P3_MyD88 Rank (after): 530
